These entries and their values trace back to patent US20230148005A1.

# target_of_assay: EGFR^L858R (Homo sapiens, UniProt P00533, L858R)
# Sequence (P00533 25-1210 L858R): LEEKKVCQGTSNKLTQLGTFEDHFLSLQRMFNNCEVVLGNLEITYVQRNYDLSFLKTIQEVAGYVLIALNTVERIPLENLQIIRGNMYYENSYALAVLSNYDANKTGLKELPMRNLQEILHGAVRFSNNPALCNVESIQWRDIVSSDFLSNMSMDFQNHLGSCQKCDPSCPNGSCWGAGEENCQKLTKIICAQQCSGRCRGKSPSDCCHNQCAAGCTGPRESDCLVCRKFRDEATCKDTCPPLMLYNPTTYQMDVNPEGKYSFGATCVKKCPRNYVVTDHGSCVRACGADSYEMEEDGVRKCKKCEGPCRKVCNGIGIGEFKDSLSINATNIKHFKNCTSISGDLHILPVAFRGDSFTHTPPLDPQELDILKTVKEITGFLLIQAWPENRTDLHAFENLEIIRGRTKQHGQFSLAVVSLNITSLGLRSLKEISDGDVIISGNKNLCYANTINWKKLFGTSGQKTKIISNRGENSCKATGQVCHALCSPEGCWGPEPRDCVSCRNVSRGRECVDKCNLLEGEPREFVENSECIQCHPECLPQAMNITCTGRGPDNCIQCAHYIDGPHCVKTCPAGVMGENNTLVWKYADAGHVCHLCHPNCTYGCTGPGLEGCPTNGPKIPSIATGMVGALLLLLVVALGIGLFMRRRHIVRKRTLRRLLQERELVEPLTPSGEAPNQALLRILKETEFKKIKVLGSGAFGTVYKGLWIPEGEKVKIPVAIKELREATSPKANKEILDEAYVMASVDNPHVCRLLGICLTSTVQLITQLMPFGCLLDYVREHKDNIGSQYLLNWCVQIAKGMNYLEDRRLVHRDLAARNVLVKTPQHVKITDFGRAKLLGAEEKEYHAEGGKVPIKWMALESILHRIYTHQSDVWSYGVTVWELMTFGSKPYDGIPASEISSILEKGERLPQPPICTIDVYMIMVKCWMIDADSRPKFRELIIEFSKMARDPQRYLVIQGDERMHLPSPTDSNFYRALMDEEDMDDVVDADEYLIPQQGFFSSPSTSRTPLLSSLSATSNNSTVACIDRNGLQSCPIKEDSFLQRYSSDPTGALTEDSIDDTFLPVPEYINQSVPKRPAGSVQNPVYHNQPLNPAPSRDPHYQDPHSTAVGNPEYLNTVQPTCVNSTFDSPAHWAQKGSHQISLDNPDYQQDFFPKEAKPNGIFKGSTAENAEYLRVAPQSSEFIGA
# protocol: in vitro kinase assay (HTRF KinEASE-TK kit), L
# condition_details: kinase inhibition
endpoint: IC50

Cc1nn(CCC(C)(C)O)cc1-c1nn2c3cc(ncc13)Nc1ccnc(n1)-c1cnn(C)c1OCCCC2C (stereo not shown) [(89)] :: 10 to 100 nM
Cc1ccc(-c2nn3c4cc(ncc24)Nc2ccnc(n2)-c2cnn(C)c2OCC[C@@H]3C)n1C [(150)] :: 10 to 100 nM
C[C@H]1CCOc2c(cnn2C)-c2nccc(n2)Nc2cc3c(cn2)c(-c2ccc(CN4CCN(CCCF)CC4)n2C)nn31 [(190)] :: < 10 nM
C[C@H]1CCOc2c(cnn2C)-c2nccc(n2)Nc2cc3c(cn2)c(-c2cccc(OCCN4CCOCC4)c2)nn31 [(145)] :: < 10 nM

Challenge: Record request: IC50 value, item C[C@H]1CCOc2c(cnn2C)-c2nccc(n2)Nc2cc3c(cn2)c(-c2cc(CN4CCN(C)CC4)n(C)c2)nn31 [(144)]
Response given: < 10 nM

Challenge: Record request: IC50 value, item CCn1cc(-c2nn3c4cc(ncc24)Nc2ccnc(n2)-c2cnn(C)c2OCC[C@@H]3C)cc1CN1CCN(C2CC2)CC1 [(126)]
Response given: < 10 nM

Challenge: Record request: IC50 value, item CC1CCOc2c(cnn2C)-c2nccc(n2)Nc2cc3c(cn2)c(-c2ccn(C)n2)nn31 (stereo not shown) [(69)]
Response given: 10 to 100 nM
